Provenance of the data: patent US20220265629A1

# ASSAY_INFO: HFrEF study Part 2 (MAD Cohorts A-D): plasma pharmacokinetics
# Format: in vivo, human
# MEASUREMENT_CONDITIONS: human, plasma, oral, 75 mg, MAD Cohort A, 75 mg BID (4 h fasting); individual subjects; read-out: AUCtau, Day 1
METRIC: AUC (ng·h/mL)
Write the number in ng·h/mL without appending the unit.

[in] What does the record list as AUC for Cn1cc(S(=O)(=O)[C@@](C)(F)C2CCN(C(=O)Nc3ccon3)CC2)c(C(F)F)n1 [Compound I] ?
[out] 10600

====

# ASSAY_INFO: HFrEF study Part 1 (SAD Cohorts 1 and 2): plasma pharmacokinetics
# Type: in vivo, human
# MEASUREMENT_CONDITIONS: human, plasma, oral, 350 mg, SAD Cohort 1, 350 mg (n = 8)
METRIC: Tmax (h)
Write the number in h without appending the unit.

[in] What does the record list as Tmax for Cn1cc(S(=O)(=O)[C@@](C)(F)C2CCN(C(=O)Nc3ccon3)CC2)c(C(F)F)n1 [Compound I] ?
[out] 6.15
